Data origin, for the record: PubChem BioAssay AID1188

system: Fathead minnow (Pimephales promelas) acute toxicity, lethality; test: DSSTox (EPAFHM) EPA Fathead Minnow Acute Toxicity
As shown below, each of these molecules has a reported Potency value.

>  <Molecule>
Cc1ccc(Cl)c(Cl)c1

>  <Potency>
18.1 µM

$$$$
>  <Molecule>
COc1ccc(C(C)=O)c(OC)c1OC

>  <Potency>
947 µM

$$$$
>  <Molecule>
NCCCN

>  <Potency>
16100 µM

$$$$
>  <Molecule>
C#CC(O)(c1ccccc1)c1ccccc1

>  <Potency>
53.3 µM

$$$$
>  <Molecule>
Oc1ccccc1O

>  <Potency>
83.7 µM

$$$$
>  <Molecule>
O=Cc1cccc(Oc2ccc(Cl)c(Cl)c2)c1

>  <Potency>
1.12 µM

$$$$
>  <Molecule>
O=[N+]([O-])c1ccc(F)cc1

>  <Potency>
201 µM

$$$$
>  <Molecule>
CCNc1cccc(C)c1

>  <Potency>
366 µM

$$$$
>  <Molecule>
COC(C)(C)C

>  <Potency>
7620 µM

$$$$
>  <Molecule>
NCc1ccccc1

>  <Potency>
952 µM

$$$$
>  <Molecule>
C1COCCO1

>  <Potency>
117000 µM

$$$$
>  <Molecule>
C#CC(C)(O)CCC(C)C (stereo not drawn)

>  <Potency>
349 µM

$$$$
>  <Molecule>
C1N2CN3CN1CN(C2)C3

>  <Potency>
355000 µM

$$$$
>  <Molecule>
C=C(C)C(=C)C

>  <Potency>
84.1 µM

$$$$
>  <Molecule>
C1=CC2CCC1C2

>  <Potency>
106 µM

$$$$
>  <Molecule>
Cl/C=C/CCl

>  <Potency>
2.15 µM

$$$$
>  <Molecule>
CCCCCCCCCCCC(C)=O

>  <Potency>
1.81 µM

$$$$
>  <Molecule>
C#CC(C)(C)O

>  <Potency>
39100 µM

$$$$
